Target: γ-secretase (Homo sapiens, UniProt P49768)
Construct: uses a HEK293 membrane fraction as a source of γ-secretase; endogenous in cells
Test: in vitro assay of γ-secretase activity (HEK293 membrane fraction, recombinant APP substrate, Abeta ELISA)
Details: γ-secretase inhibition; HEK293 membrane fraction solubilized in 0.25% CHAPSO, recombinant human APP C-terminal 100 amino acids substrate, Abeta detected by ELISA
MEASURED_ENDPOINT: IC50 (nM)
Your answer should be a plain number; it is taken to be in nM.

Below are worked cases with known answers.
COMPOUND	IC50 (nM)
COC(C(=O)NCC(F)(F)C(F)(F)F)C(=O)N[C@@H]1C(=O)N(CCOCc2ccccc2)c2ccccc2-c2ccccc21 (stereo partly drawn) [Example 10]	49
CCOC(C(=O)NCC(F)(F)C(F)(F)F)C(=O)N[C@@H]1C(=O)N(CCO)c2ccccc2-c2ccccc21 (stereo partly drawn) [Example 17]	4
C[C@](F)(C(=O)NCC(F)(F)F)C(=O)N[C@@H]1C(=O)N(CCO)c2ccccc2-c2ccccc21 [Example 49]	157

Exercise: Provide the documented IC50 with γ-secretase (Homo sapiens, UniProt P49768) as the system for C[C@@](F)(C(=O)NCC(F)(F)C(F)(F)F)C(=O)N[C@@H]1C(=O)N(CCO)c2ccccc2-c2ccccc21 [Example 26]
Solution: 1

Exercise: Enter reported IC50 observed with γ-secretase (Homo sapiens, UniProt P49768) for CC(O)(C(=O)NCCC(F)(F)F)C(=O)N[C@@H]1C(=O)N(CCO)c2ccccc2-c2ccccc21 (single isomer, unassigned; epimer a) [Example 65]
Solution: 39

Exercise: Record CCOC(C(=O)NCC(F)(F)C(F)(F)F)C(=O)N[C@@H]1C(=O)N(CCOCc2ccccc2)c2ccccc2-c2ccccc21 (stereo partly drawn) [Example 14] : what is its IC50 with γ-secretase (Homo sapiens, UniProt P49768)?
Solution: 8

Exercise: Please provide the recorded IC50 for CC(C)(C(=O)NCC(F)(F)C(F)(F)F)C(=O)N[C@@H]1C(=O)N(CCO)c2ccccc2-c2ccccc21 [Example 6] , tested on γ-secretase (Homo sapiens, UniProt P49768).
Solution: 2

Exercise: Lab note: need IC50 with γ-secretase (Homo sapiens, UniProt P49768) for entry CC(O)(C(=O)NCCC(F)(F)C(F)(F)F)C(=O)N[C@@H]1C(=O)N(CCO)c2ccccc2-c2ccccc21 (stereo partly drawn) [Example 56] , please look it up.
Solution: 2

Exercise: # returns recorded IC50 (system: γ-secretase (Homo sapiens, UniProt P49768)) for CC(C)(C(=O)NCC(F)(F)C(F)(F)F)C(=O)N[C@@H]1C(=O)N(CCOc2ccc(F)cc2)c2ccccc2-c2ccccc21 [Example 69]
Solution: 6

Exercise: Entry C[C@@](O)(C(=O)NCC(F)(F)F)C(=O)N[C@@H]1C(=O)N(CCOCc2ccccc2)c2ccccc2-c2ccccc21 [Example 57] , system γ-secretase (Homo sapiens, UniProt P49768): what IC50 was measured?
Solution: 90

Exercise: Requested read-out IC50, target or system γ-secretase (Homo sapiens, UniProt P49768), entry COCCN1C(=O)[C@@H](NC(=O)C(C)(O)C(=O)NCC(F)(F)C(F)(F)F)c2ccccc2-c2ccccc21 (stereo partly drawn) [Example 34]
Solution: 4

Exercise: Request body: readout IC50, system γ-secretase (Homo sapiens, UniProt P49768), query CC(C(=O)NCC(F)(F)C(F)(F)F)C(=O)N[C@@H]1C(=O)N(CCO)c2ccccc2-c2ccccc21 (stereo partly drawn) [Example 3] . Return the value.
Solution: 1

Exercise: API: value(readout= IC50, system= γ-secretase (Homo sapiens, UniProt P49768), query= C[C@](O)(C(=O)NCC(F)(F)F)C(=O)N[C@@H]1C(=O)N(CCO)c2ccccc2-c2ccccc21 [Example 60] )
Solution: 4

Exercise: Value wanted: IC50 (γ-secretase (Homo sapiens, UniProt P49768)) of entry COCCN1C(=O)[C@@H](NC(=O)CC(=O)NCC(F)(F)C(F)(F)F)c2ccccc2-c2ccccc21 [Example 24]
Solution: 34

Exercise: Query the reported IC50 for γ-secretase (Homo sapiens, UniProt P49768); item: C[C@H](OC(=O)NCCF)C(=O)N[C@@H]1C(=O)N(CCO)c2ccccc2-c2ccccc21 [Example 47]
Solution: 755
